These measurements were taken from ChEMBL document CHEMBL1201862.

# Test system: HCT-116
# run-description: NCI tumour cell line growth inhibition, 48 h
Calls of active or inactive are those of the source. Cut-off read from the data, not from the text of the source: active = GI50 up to about 1.1 µM and inactive = higher.
Your response should consist of one outcome taken from active, inactive

[in] Hi team, can someone confirm the assay call for CSCCC(NC(=O)OCc1ccccc1)NC(=O)OCc1ccccc1 ?
[out] inactive

[in] Hi team, can someone confirm the assay call for O=C1C(=O)C2(CC1S(=O)(=O)c1ccccc1)c1ccccc1-c1ccccc12 (stereo unspecified) ?
[out] inactive

Next:
[in] Hi team, can someone confirm the assay call for COC(=O)CCc1cc(O)c2c(c1)C(C(=O)OC)C(c1ccc(O)c(O)c1)O2 (stereo unspecified) ?
[out] inactive

[in] Hi team, can someone confirm the assay call for CC(=O)OC(C)C(=O)C1c2cccc(O)c2C(=O)c2c(O)cc(C)cc21 (stereo unspecified) ?
[out] active

[in] Hi team, can someone confirm the assay call for NC(CCCC(N)P(=O)(O)c1ccccc1)P(=O)(O)c1ccccc1 (stereo unspecified) ?
[out] inactive

[in] Hi team, can someone confirm the assay call for Cc1c(/N=N/c2ccc(Cl)cc2)c(C)n(C2OC(CO)C(O)C(O)C2O)c(=S)c1C#N (stereo unspecified) ?
[out] inactive

----------
# System: LOX IMVI
# run-description: NCI tumour cell line growth inhibition, 48 h
Active and inactive are the calls of the source. Cut-off read from the data, not from the text of the source: active = GI50 up to about 1.1 µM and inactive = higher.
readout-type: GI50

These recorded examples may help you get a feel for the data.
[in] Read off the recorded GI50 for N#CC12C(=O)N3C(=NC(c4ccccc4)NC3c3ccccc3)C1(C#N)C(c1ccccc1)NC1=C2CCC1 (stereo not given)
[out] > 100 µM (inactive)

[in] Read off the recorded GI50 for CCCc1[nH]c(SCCCCCCCCSc2nc(-c3ccc(F)cc3)c(CCC)[nH]2)nc1-c1ccc(F)cc1
[out] 10.3 µM (inactive)

[in] Read off the recorded GI50 for Cc1ccc2c(c1C)C(=O)/C(=C/c1ccccc1C(=O)O)C2
[out] > 100 µM (inactive)

[in] Read off the recorded GI50 for Cc1ccc2oc(=O)c(-c3ccccc3)nc2c1
[out] 20.2 µM (inactive)

[in] Read off the recorded GI50 for CCOC(=O)C(Cl)(NC(=O)c1c(F)c(F)c(F)c(F)c1F)C(F)(F)F (stereo not given)
[out] > 100 µM (inactive)

Next:
[in] Read off the recorded GI50 for CC1(C)CC(C#Cc2ccccc2)CC(C)(C)N1O
[out] 15.5 µM (inactive)

[in] Read off the recorded GI50 for C/C(CC(O)(C(F)(F)F)C(F)(F)F)=N/Nc1ccc([N+](=O)[O-])cc1[N+](=O)[O-]
[out] 3.3 µM (inactive)

[in] Read off the recorded GI50 for C=C(Br)CN(C)CC(=C)Br
[out] > 100 µM (inactive)

[in] Read off the recorded GI50 for N#Cc1ccccc1C(Cl)(Cl)c1cnccn1
[out] 24.2 µM (inactive)

[in] Read off the recorded GI50 for CC1=NN(c2ccccc2)C(=O)C12[C@H](c1ccccc1)C2(C#N)C#N (stereo not given in full)
[out] 1.78 µM (inactive)

----------
# Tested on: A549
# run-description: NCI tumour cell line growth inhibition, 48 h
Calls of active or inactive are those of the source. No stated cut-off is given here; in the data, active = GI50 up to about 1.1 µM and inactive = higher.
readout-type: GI50

[in] Read off the recorded GI50 for CCOC(=O)N/N=C(/N)Cc1ccccc1
[out] > 100 µM (inactive)

Next:
[in] Read off the recorded GI50 for C=CCOn1c(C=C)nc2ccc(C)cc21
[out] 22.7 µM (inactive)

[in] Read off the recorded GI50 for Cc1nc2ccc(C(F)(F)F)cc2nc1Nc1ccc(Cl)c(Cl)c1
[out] 7.14 µM (inactive)

[in] Read off the recorded GI50 for CC(C)c1nccn1Cc1ccc(Cl)cc1Cl
[out] 34.4 µM (inactive)

[in] Read off the recorded GI50 for O=C1c2ccccc2C(=O)N1CCN(CCN1C(=O)c2ccccc2C1=O)Cn1cccn1
[out] > 100 µM (inactive)

----------
Listing: GI50 of selected compounds
# Test system: EKVX
# run-description: NCI tumour cell line growth inhibition, 48 h
The source made the active and inactive calls. Cut-off read from the data, not from the text of the source: active = GI50 up to about 1.1 µM and inactive = higher.

[in] Read off the recorded GI50 for Cc1n[nH]c(=O)n1/N=C\CC/C=N\n1c(C)n[nH]c1=O
[out] > 100 µM (inactive)

[in] Read off the recorded GI50 for CC(CO)(CO)N1C(=O)C2C3C=CC(C3)C2C1=O (stereo unspecified)
[out] > 100 µM (inactive)

[in] Read off the recorded GI50 for CC1=C(c2ccc(C)cc2)NC(=S)C(C)C(c2ccc(C)cc2)=N1 (stereo unspecified)
[out] 56.6 µM (inactive)

[in] Read off the recorded GI50 for CC(Cc1ccc2c(c1)OCO2)N(C)C(=O)C1=CCN(C)CC1 (stereo unspecified)
[out] > 100 µM (inactive)

[in] Read off the recorded GI50 for COc1ccc(/C=c2/s/c(=C(\C#N)c3nc4ccccc4[nH]3)n(-c3ccccc3)c2=O)cc1
[out] > 69.3 µM (inactive)

Next:
[in] Read off the recorded GI50 for CC(C)=CCC/C(C)=C/CC/C(C)=C/CC(CO)N(C)CC/C=C(\C)CCC=C(C)C (stereo unspecified)
[out] 10.4 µM (inactive)

----------
Listing: GI50 of selected molecules
# Tested on: SNB-19
# run-description: NCI tumour cell line growth inhibition, 48 h
The source made the active and inactive calls. Cut-off read from the data, not from the text of the source: active = GI50 up to about 1.1 µM and inactive = higher.

These recorded examples may help you get a feel for the data.
[in] Read off the recorded GI50 for O=C(O)[C@@H]1[C@H](C(=O)O)[C@H](C(=O)O)C[C@@H]1C(=O)O
[out] > 100 µM (inactive)

[in] Read off the recorded GI50 for CN(C)CCC1(C2=CCCC2)CC/C(=C\c2ccccc2)C1=O (configuration not stated)
[out] 14.7 µM (inactive)

[in] Read off the recorded GI50 for CC(ON1[C@](C)(c2ccccc2)CC[C@@]1(C)c1ccccc1)c1ccccc1 (some centres not stated)
[out] 25.5 µM (inactive)

Next:
[in] Read off the recorded GI50 for COc1ccc(/C=c2/s/c(=C(\C#N)c3nc4ccccc4[nH]3)n(-c3ccccc3)c2=O)cc1
[out] 47.1 µM (inactive)

[in] Read off the recorded GI50 for CC/C=C(\C(=C/CC)[N+](=O)[O-])[N+](=O)[O-]
[out] > 100 µM (inactive)

[in] Read off the recorded GI50 for CC(C)(C)OC(=O)NCC(c1c[nH]c2ccc(Br)cc12)c1c[nH]c2ccc(Br)cc12
[out] 11.2 µM (inactive)

[in] Read off the recorded GI50 for O=C(O)C(Cc1cccs1)C(=O)O
[out] > 100 µM (inactive)

[in] Read off the recorded GI50 for COc1ccc2c(=O)cc(-c3ccncc3)oc2c1OC
[out] 31.4 µM (inactive)

----------
# Test system: Hs-578T
# run-description: NCI tumour cell line growth inhibition, 48 h
Calls of active or inactive are those of the source. Rule as the data show it: active = GI50 up to about 1.1 µM and inactive = higher.
Your response should consist of one outcome taken from active, inactive

The following compounds have reported results that may help.
[in] Hi team, can someone confirm the assay call for Nc1n[nH]c2c(C(=O)Nc3ccc(Cl)cc3)c(N)n(N)c(=O)c12 ?
[out] inactive

[in] Hi team, can someone confirm the assay call for CCOC(=O)N/N=C(/N)Cc1ccccc1 ?
[out] inactive

[in] Hi team, can someone confirm the assay call for C=C(Br)CN(C)CC(=C)Br ?
[out] inactive

[in] Hi team, can someone confirm the assay call for COc1ccc2c(=O)cc(-c3ccncc3)oc2c1OC ?
[out] inactive

Let's switch to this compound now.
[in] Hi team, can someone confirm the assay call for CC12Nc3c(Cl)cc(Cl)cc3N1C(=O)c1ccccc12 (configuration not stated) ?
[out] inactive

----------
# System: RXF 393
# run-description: NCI tumour cell line growth inhibition, 48 h
Calls of active or inactive are those of the source. No stated cut-off is given here; in the data, active = GI50 up to about 1.1 µM and inactive = higher.
Your response should consist of one outcome taken from true (1) (active), false (0) (inactive)

[in] Hi team, can someone confirm the assay call for O=P(c1ccccc1)(c1ccccc1)C(NCc1ccccc1)c1ccc(F)cc1 (stereo not given) ?
[out] false (0)

[in] Hi team, can someone confirm the assay call for Nc1nc(Cl)cc(NCC2(CO)CCC(OCc3ccccc3)C2)n1 (stereo not given) ?
[out] false (0)

[in] Hi team, can someone confirm the assay call for NC(Cc1cc(I)c(O)c(I)c1)C(=O)O (stereo not given) ?
[out] false (0)

[in] Hi team, can someone confirm the assay call for COc1ccc(/C=c2/s/c(=C(\C#N)c3nc4ccccc4[nH]3)n(-c3ccccc3)c2=O)cc1 ?
[out] false (0)

[in] Hi team, can someone confirm the assay call for CCc1c(Cc2[nH]c(Cc3[nH]c(C=O)c(C)c3CC)c(CC)c2CC)[nH]c(C=O)c1C ?
[out] false (0)

[in] Hi team, can someone confirm the assay call for CC1=C(C(=O)NC2CCCCC2)CC(C(=O)NC2CCCCC2)=C(C)N1 ?
[out] false (0)

[in] Hi team, can someone confirm the assay call for CC(=O)OC(C)C(=O)C1c2cccc(O)c2C(=O)c2c(O)cc(C)cc21 (stereo not given) ?
[out] true (1)

[in] Hi team, can someone confirm the assay call for NC(=O)c1ccccc1NC(=O)C(=O)Nc1n[nH]c(N)n1 ?
[out] false (0)

[in] Hi team, can someone confirm the assay call for O=C1C(=O)c2c(oc(=O)c3ccccc23)-c2ccccc21 ?
[out] false (0)

Let's switch to this compound now.
[in] Hi team, can someone confirm the assay call for CC(=O)C1CC(C)=CCC12C(=O)Nc1ccccc12 (stereo not given) ?
[out] false (0)
